Entry source: paper PMC3477848

Molecular target: T1, Dpo4 (SsoDpo4, Y-family DNA polymerase) (Sulfolobus solfataricus, UniProt Q97W02 1-352)
T1 sequence: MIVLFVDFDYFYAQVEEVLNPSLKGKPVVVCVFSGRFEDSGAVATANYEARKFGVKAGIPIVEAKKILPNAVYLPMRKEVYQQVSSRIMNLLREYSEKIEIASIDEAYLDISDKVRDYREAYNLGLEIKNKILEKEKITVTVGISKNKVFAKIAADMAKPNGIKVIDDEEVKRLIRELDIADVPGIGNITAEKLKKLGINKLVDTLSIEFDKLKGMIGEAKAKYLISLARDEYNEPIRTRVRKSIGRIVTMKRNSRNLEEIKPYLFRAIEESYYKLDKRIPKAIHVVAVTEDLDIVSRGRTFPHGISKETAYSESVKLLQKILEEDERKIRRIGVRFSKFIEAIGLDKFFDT
Test: fluorescence anisotropy
pKd: −log10 of the molar value.

{"binder": "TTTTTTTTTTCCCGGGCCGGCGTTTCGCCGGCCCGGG (structured_DNA) [37-nt hairpin primer-template, 5'-Cy3]", "pKd": 6.17}
